Where do these numbers come from? They come from ChEMBL document CHEMBL1811823.

Exercise: for every item that follows, state its recorded GI50.
- Test system: A549
- methodNotes: Growth inhibition of human A549 cells after 48 hrs by SRB assay
- Assay type: functional
- conditionContext: A549, 48 h
One number for each entry, in nM.

[
  {
    "smi": "COc1ccc(-n2c(C)nc3ccc(OCCCCCOc4cc5c(cc4OC)C(=O)N4CCC[C@H]4C=N5)cc3c2=O)cc1",
    "targetEntity": "A549",
    "quantityName": "GI50",
    "value": 140
  },
  {
    "smi": "COc1cc2c(cc1OCCCOc1ccc(-n3c(/C=C/c4ccccc4)nc4ccccc4c3=O)cc1)N=C[C@@H]1CCCN1C2=O",
    "targetEntity": "A549",
    "quantityName": "GI50",
    "value": 1880
  },
  {
    "smi": "COc1cc2c(cc1OCCCCCOc1ccc3nc(C)n(-c4ccc(F)cc4)c(=O)c3c1)N=C[C@@H]1CCCN1C2=O",
    "targetEntity": "A549",
    "quantityName": "GI50",
    "value": 130
  }
]

Please turn your attention to the following entry.
Problem: Query: GI50; subject: COc1cc2c(cc1OCCCCOc1ccc(-n3c(/C=C/c4ccccc4)nc4ccccc4c3=O)cc1)N=C[C@@H]1CCCN1C2=O
Result: 2390

---

Exercise: for every item that follows, state its recorded ΔTm.
- Test system: Nucleic Acid
- methodNotes: Binding affinity to calf thymus DNA assessed as change in melting temperature at 20 uM at pH 7 incubated for 18 hrs at 37 degC by thermal denaturation assay
- Assay type: nucleic-acid assay
- conditionContext: Bos taurus
One number for each entry, in °C.

Can you give me ΔTm for all of these, one by one?
1. COc1cc2c(cc1OCCCOc1ccc(-n3c(/C=C/c4ccccc4)nc4ccccc4c3=O)cc1)N=C[C@@H]1CCCN1C2=O
2. COc1cc2c(cc1OCCCCCOc1ccc3nc(C)n(-c4ccc(F)c(Cl)c4)c(=O)c3c1)N=C[C@@H]1CCCN1C2=O
3. COc1cc2c(cc1OCCCCOc1ccc(-n3c(/C=C/c4ccccc4)nc4ccccc4c3=O)cc1)N=C[C@@H]1CCCN1C2=O
4. COc1ccc(-n2c(C)nc3ccc(OCCCCCOc4cc5c(cc4OC)C(=O)N4CCC[C@H]4C=N5)cc3c2=O)cc1
5. COc1cc2c(cc1OCCCCOc1ccc3nc(C)n(-c4ccc(I)cc4C)c(=O)c3c1)N=C[C@@H]1CCCN1C2=O
6. COc1cc2c(cc1OCCCCOc1ccc(-n3c(C)nc4ccccc4c3=O)cc1)N=C[C@@H]1CCCN1C2=O
7. COc1cc2c(cc1OCCCCCOc1ccc3nc(C)n(-c4ccc(I)cc4C)c(=O)c3c1)N=C[C@@H]1CCCN1C2=O

Result:
[2, 2.3, 2.3, 2.2, 2, 2.1, 2.1]

---

- System: A549
- methodNotes: Growth inhibition of human A549 cells after 48 hrs by SRB assay
- Format: functional
- conditionContext: A549, 48 h
quantityName: GI50 (nM)
Give bare numbers, in nM.

[
  {
    "smi": "COc1cc2c(cc1OCCCOc1ccc(-n3c(C)nc4ccccc4c3=O)cc1)N=C[C@@H]1CCCN1C2=O",
    "uom": "nM",
    "GI50": 1480
  }
]

Can you give me GI50 for all of these, one by one?
1. COc1cc2c(cc1OCCCCCOc1ccc3nc(C)n(-c4ccc(F)c(Cl)c4)c(=O)c3c1)N=C[C@@H]1CCCN1C2=O
2. COc1cc2c(cc1OCCCCCOc1ccc3nc(C)n(-c4ccc(I)cc4C)c(=O)c3c1)N=C[C@@H]1CCCN1C2=O

Result:
1: 130; 2: 160

Can you give me GI50 for all of these, one by one?
1. COc1cc2c(cc1OCCCCOc1ccc(-n3c(C)nc4ccccc4c3=O)cc1)N=C[C@@H]1CCCN1C2=O
2. COc1cc2c(cc1OCCCCCOc1ccc(-n3c(/C=C/c4ccccc4)nc4ccccc4c3=O)cc1)N=C[C@@H]1CCCN1C2=O
3. COc1cc2c(cc1O)N=C[C@@H]1CCCN1C2=O
4. COc1cc2c(cc1OCCCCOc1ccc3nc(C)n(-c4ccc(Cl)cc4Cl)c(=O)c3c1)N=C[C@@H]1CCCN1C2=O

Result:
1. 1930
2. 26200
3. 160
4. 180

Problem: Query: GI50; subject: COc1cc2c(cc1OCCCCOc1ccc3nc(C)n(-c4ccc(I)cc4C)c(=O)c3c1)N=C[C@@H]1CCCN1C2=O
Result: 170
